Biological target: Estrogen receptor beta (Homo sapiens)
Sequence (Q92731 whole entry): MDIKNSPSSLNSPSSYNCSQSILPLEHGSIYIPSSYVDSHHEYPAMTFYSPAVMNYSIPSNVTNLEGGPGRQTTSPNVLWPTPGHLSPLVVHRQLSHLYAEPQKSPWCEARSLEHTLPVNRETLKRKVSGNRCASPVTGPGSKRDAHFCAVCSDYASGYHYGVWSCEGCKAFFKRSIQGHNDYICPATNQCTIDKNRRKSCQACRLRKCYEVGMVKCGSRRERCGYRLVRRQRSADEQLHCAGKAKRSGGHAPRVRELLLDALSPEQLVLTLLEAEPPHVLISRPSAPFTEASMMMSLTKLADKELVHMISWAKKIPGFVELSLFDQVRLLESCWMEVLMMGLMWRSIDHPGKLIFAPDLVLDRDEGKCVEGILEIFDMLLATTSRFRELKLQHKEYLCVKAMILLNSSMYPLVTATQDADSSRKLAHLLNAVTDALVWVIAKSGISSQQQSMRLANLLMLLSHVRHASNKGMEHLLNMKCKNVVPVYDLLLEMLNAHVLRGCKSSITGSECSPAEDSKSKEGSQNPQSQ
Experiment: Displacement of [3H]estradiol from human recombinant ERbeta
readout_name: Ki (nM)
Entry rule: numbers only, all in nM.

Below: 5 compounds and their reported Ki.
>>> observed_measurement("Oc1ccc2c(Oc3ccc(OCCN4CCCCC4)cc3)c(-c3ccc(F)cc3)ccc2c1")
0.28
>>> observed_measurement("CN(C)C(=O)c1ccc(-c2ccc3cc(O)ccc3c2Oc2ccc(OCCN3CCCCC3)cc2)cc1")
1.16
>>> observed_measurement("Oc1ccc2c(Oc3ccc(OCCN4CCCCC4)cc3)c(-c3cccc(F)c3)ccc2c1")
0.16
>>> observed_measurement("CS(=O)(=O)c1ccc(-c2sc3cc(O)ccc3c2Oc2ccc(OCCN3CCCCC3)cc2)cc1")
13.6
>>> observed_measurement("Oc1cccc(-c2ccc3cc(O)ccc3c2Oc2ccc(OCCN3CCCCC3)cc2)c1")
0.36

Input line: Endpoint output: Ki of N#Cc1cccc(-c2ccc3cc(O)ccc3c2Oc2ccc(OCCN3CCCCC3)cc2)c1 . Value?
Output line: 0.35

Input line: Do the same for O=S1(=O)CC=C(c2ccc3cc(O)ccc3c2Oc2ccc(OCCN3CCCCC3)cc2)CC1 please
Output line: 2.1

Input line: Do the same for Oc1ccc2c(Oc3ccc(OCCN4CCCCC4)cc3)c(-c3ccc(F)c(F)c3)ccc2c1 please
Output line: 0.29

Input line: Do the same for O=S1(=O)CCC(c2ccc3cc(O)ccc3c2Oc2ccc(OCCN3CCCCC3)cc2)CC1 please
Output line: 4.11
